- System: SK-MEL-2 melanoma
- protocolDetails: NCI tumour cell line growth inhibition, 48 h
measuredMetric: TGI

CC1CC2C3CCC4=CC(=O)C=CC4(C)C3(F)C(O)CC2(C)C1(O)C(=O)COP(=O)(O)O (stereo not drawn)
> 500 µM
CC1=NN=C(C)C1N=Nc1ccc2nc(C)[nH]c2c1
36.3 µM
OCC#CCNCl
> 100 µM
O=C1c2ccccc2C(=O)c2cc3c(cc21)CS(=O)C3
> 100 µM
N#CCCn1[nH]c(=O)c(Cl)c(Cl)c1=O
29.6 µM
COc1ccc(-c2cc(-c3ccc(Nc4nc(Nc5ccccc5)nc(Nc5ccc(Cl)cc5)n4)cc3)nc(N)n2)cc1
44.1 µM
Cc1cccc(C2ON=C(c3ccccc3)N2C23CC4CC(CC(C4)C2)C3)c1 (stereo not drawn)
> 10 µM
CC1(C)C2CCC3CC(CCC#N)CCC3C21C#N (stereo not drawn)
> 100 µM

---

- System: HOP-62 NSCLC
- protocolDetails: NCI tumour cell line growth inhibition, 48 h
measuredMetric: GI50

O=C1NC(=NCCc2ccc(F)cc2)S/C1=C\c1ccc2ncccc2c1
> 25 µM
CCN(CC)c1ccc(/C=C/C(=O)c2ccc(Nc3nc(Nc4ccccc4)nc(Nc4ccccc4)n3)cc2)cc1
2.55 µM
N#CCn1c(=O)c(Oc2ccc(F)cc2F)cc2cnc(NC3CCOCC3)nc21
> 25 µM
c1ccc(-c2oc(-c3ccccc3)c(CN3CCCCC3)c2CN2CCCCC2)cc1
4.69 µM
O=C1NC(=NCc2ccccc2Cl)S/C1=C\c1ccc2ncccc2c1
16 µM
COc1ccc(-c2cc(-c3ccc(Nc4nc(Nc5ccccc5)nc(Nc5ccc(Cl)cc5)n4)cc3)nc(N)n2)cc1
10.3 µM
O=C1CC(c2c[nH]c3ccc(F)cc23)C(=O)N1 (stereo not given)
> 100 µM
CSc1ccc(C2=C(c3ccccc3)C(=O)OC2)cc1
1.96 µM
CN=C(N)c1ccc(N=C(N)c2ccc(-c3ccc(C(N)=Nc4ccc(C(N)=NC)cc4)cc3)cc2)cc1
> 100 µM
COc1cc(/C=C2\C(=O)N(Cc3ccc(Cl)cc3)c3ccccc32)cc(OC)c1OC
3.72 µM

---

Each item that follows carries a reported log10 of TGI.
- System: BT-549 breast
- protocolDetails: NCI tumour cell line growth inhibition, 48 h
measuredMetric: log10 of TGI (log10 of the value in µM)

CC(=O)OCC1OC(n2c(=S)n(-c3ccc([N+](=O)[O-])cc3)c(=O)c3ccccc32)C(OC(C)=O)C(OC(C)=O)C1OC(C)=O (stereo unspecified)
1.43
O[C@]12C=C(c3nccc4c3[nH]c3ccccc34)[C@@H]3CCN(CCCC/C=C\CC1)C[C@@]31CC3/C=C\CCCCN3[C@H]12 (stereo partly specified)
1.02
COc1cc2c(c(OC)c1OC)-c1ccc(NN(C(=O)c3ccccc3)C(=O)c3ccccc3)c(=O)cc1[C@@H](NC(C)=O)CC2 (tested in a mixture with another compound)
0.91
CCN(CC)c1ccc2nc3ccc(N=Nc4ccc(N(C)C)cc4)cc3[n+](-c3ccccc3)c2c1
0.41
O=C(Nc1ccc(Oc2ccc(F)cc2)cc1)[C@@H]1C[C@@H](Cc2ccc(F)cc2)CN1C(=O)Cn1ccnn1
1.48

---

- Test system: HCT-15 colon
- protocolDetails: NCI tumour cell line growth inhibition, 48 h; in the data active = GI50 below about 0.43 µM; inactive = the rest
Outcome codes: active, inactive

O=C(CS(=O)(=O)c1nc2ccccc2nc1-c1ccccc1)Nc1ccc(F)cc1
inactive
COc1ccc(-c2cc(-c3ccc(Nc4nc(Nc5ccccc5)nc(Nc5ccc(Cl)cc5)n4)cc3)nc(N)n2)cc1
inactive
COC(=O)NC1C(C)OC(OC2C/C=C(/C)C3C=CC4C(OC5CC(OC6CCC(OC7CC(O)C(OC8CCC(O)C(C)O8)C(C)O7)C(C)O6)C(OC(C)=O)C(C)O5)C(C)CC(C)C4C3(C)/C(O)=C3/C(=O)OC4(CC(C=O)=CC(O)C4/C=C\2C)C3=O)CC1(C)[N+](=O)[O-] (configuration not stated)
inactive
CSC1=NC(=Nc2c(C)cccc2C)C2(CCC(C(C)(C)C)CC2)N1c1ccc(Cl)cc1 (configuration not stated)
inactive
NC(=O)c1ccc2c(c1)-c1nc-2nc2[n-]c(nc3nc(nc4[n-]c(n1)c1ccc(C(N)=O)cc41)-c1ccc(C(N)=O)cc1-3)c1ccc(C(N)=O)cc21.[Co+2]
inactive
C=C1C(=O)O[C@H]2[C@H]1CC/C(COC(=O)c1cc(OC)c(OC)c(OC)c1)=C\CC[C@@]1(C)O[C@@H]21
active
COc1cc(C2c3cc4c(cc3[C@@H](NCCN(C)C)C3COC(=O)[C@H]23)OCO4)cc(OC)c1O (some centres not stated)
inactive
C=C1C[C@H]2C=Nc3cc(OCCCOc4cc5c(cc4OC)C(=O)N4CC(=C)C[C@H]4C=N5)c(OC)cc3C(=O)N2C1
active
O=C1NC(=S)S/C1=C\c1cn(-c2ccccc2)nc1-c1ccccc1
inactive
O=C1Nc2ccc(Cl)cc2/C1=C\c1c(-c2ccc(Cl)cc2)nc2sc(C3CC3)nn12
inactive
NC1NC=NC2C1N=CN2C1OC(CO)C2[O][Sn][O]C21 (configuration not stated)
active
CCCCN(CCCC)C(=O)[C@H](CC)[C@@H]1CC[C@@H](C)[C@@H]([C@H](C)[C@@H](O)[C@@H](C)C(=O)[C@H](CC)C2O[C@]3(C=C[C@@H](O)[C@]4(CC[C@@](C)([C@H]5CC[C@](O)(CC)[C@H](C)O5)O4)O3)[C@H](C)C[C@@H]2C)O1 (some centres not stated)
inactive
CN(C)c1ccc(/C=C\c2ccnc3ccccc23)cc1
inactive
CO[C@H]1C[C@@H]2CC[C@@H](C)[C@@](O)(O2)C(=O)C(=O)N2CCCC[C@H]2C(=O)O[C@H]([C@H](C)C[C@@H]2CC[C@@H](OC(=O)C(C)(CO)CO)[C@H](OC)C2)CC(=O)[C@H](C)/C=C(\C)[C@@H](O)[C@@H](OC)C(=O)[C@H](C)C[C@H](C)\C=C/C=C/C=C/1C
active
O=C1/C(=C/c2ccc(Cl)c(Cl)c2)CN(C(=O)C(Cl)Cl)C/C1=C\c1ccc(Cl)c(Cl)c1
active
CN=C(N)c1ccc(N=C(N)c2ccc(-c3ccc(C(N)=Nc4ccc(C(N)=NC)cc4)cc3)cc2)cc1
inactive
COc1cc2c(Nc3ccc(NC(=O)Nc4ccc(Cl)c(C(F)(F)F)c4)c(Cl)c3)ncnc2cc1OCCCN1CCN(C)CC1
inactive
O=C1Nc2ccc(Br)cc2C12CC(c1ccccc1)=NN2 (configuration not stated)
inactive
COc1ccc(C(O)c2cc3c(N)c(C(=O)Nc4ccc(Cl)cc4)sc3nc2C)cc1 (configuration not stated)
inactive
COc1cc2cc(Oc3ccc(NC(=O)Nc4cc(C(F)(F)F)cc(C(F)(F)F)c4)cc3)c(C)nc2cc1OCCN1CCOCC1
inactive
COc1cnc2c(c1)C(=O)c1c-2n(CCCNC2=NCCS2)c(=O)c2cc(F)ccc12
inactive
CCOC(=O)c1c(-c2ccccc2)[n+](=O)c2cc(Cl)c(Cl)cc2n1[O-]
inactive

---

Each item that follows carries a reported TGI.
- Test system: HT29 colon
- protocolDetails: NCI tumour cell line growth inhibition, 48 h
measuredMetric: TGI (µM)

CC(=O)Nc1ccc(C(=O)CCl)cc1
5.04
O=C1NC(=S)S/C1=C\c1cn(-c2ccccc2)nc1-c1ccccc1
38.3
COc1ccc(-c2cc(-c3ccc(Nc4nc(Nc5ccccc5)nc(Nc5ccc(Cl)cc5)n4)cc3)nc(N)n2)cc1
21.8
C=C1C[C@H]2C=Nc3cc(OCCCOc4cc5c(cc4OC)C(=O)N4CC(=C)C[C@H]4C=N5)c(OC)cc3C(=O)N2C1
19.7
COC1(CC[C@@H](C)COC2OC(CO)C(O)C(O)C2O)O[C@H]2C[C@H]3[C@@H]4CC=C5C[C@@H](OC6OC(CO)C(OC7OC(C)C(O)C(O)C7O)C(O)C6OC6OC(C)C(O)C(O)C6O)CC[C@]5(C)[C@H]4CC[C@]3(C)[C@H]2[C@@H]1C (some centres not stated)
4.3
Cn1cc(/C=C\[N+](=O)[O-])c2ccccc21
39.8
O=C1Oc2ccccc2C1C/C(=N\Nc1ccccc1)c1ccccc1O (configuration not stated)
78.5

---

- Tested on: RXF-631 renal
- protocolDetails: NCI tumour cell line growth inhibition, 48 h
Each item that follows carries a reported TGI.
measuredMetric: TGI

CCCCCCCC/C=C1\CCC(CN(C)C)C1=O (stereo unspecified)
17.9 µM
COC(=O)C(=O)C(C(=O)OC)C(=O)C(=O)Nc1c(C)cccc1C (stereo unspecified)
> 100 µM
Cc1c(O)c(=O)ccn1CCN
> 100 µM
COC1C2C[C@@H](O)CCC2C(C(=O)OCCl)C[C@H]1O (stereo partly specified)
> 100 µM
Nc1nncc2c1c(Br)cn2C1OC(CO)C(O)C1O (stereo unspecified)
> 100 µM
CCCNC(=O)Nc1c([N+](=O)[O-])cc(C(F)(F)F)cc1[N+](=O)[O-]
> 100 µM
